System: LXRb homodimer (NR concentration 270 nM)
Experiment summary: PBM binding z-score (relative to random genomic background probes); higher = stronger binding; sequences stand for … in GC…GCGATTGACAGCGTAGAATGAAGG
# label = fulfilled if PBM binding z-score >= -0.6 else not fulfilled

ATCTCTAGGTAACCAAGTTCAATGAATGCCGAAC = fulfilled

Hi team, for `TCGAGTAGGGTACCAATGGGGCATTCAGCTTTCT` , is the recorded PBM binding z-score at or above -0.6?
not fulfilled

Quick check, PBM binding z-score >= -0.6? `CCAGACAGGTGAAAGGTAGCTCAGTCTGGTACGC`
not fulfilled

Hello, I need to know if `CCTACTTGGCCAAGGTCATTGATCAGTCAAAGCA` has measured PBM binding z-score not below -0.6. Thanks!
fulfilled

###

Reported values of PBM binding z-score for individual entries
Tested on: PPARg:RXRa (NR concentration 180 nM, RXRa partner concentration 90 nM)
Experiment summary: PBM binding z-score (relative to random genomic background probes); higher = stronger binding; sequences stand for … in GC…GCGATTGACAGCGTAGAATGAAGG
Keep it simple and answer with nothing but the number.

Some entries whose results are on file:
AGAACGAGGGCACGCTAAGTTGATAGCAGAGTAG = 2.2
CAAACTAGGTCATAGAGGTCAAAGTCCGTGCGTA = 9.13
TAGCCTAGGTCAAGGGCCAGTATACCACGCGAAC = 4.52
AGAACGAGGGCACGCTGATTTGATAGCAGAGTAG = 2.24
TGGAGTAGGTTAGGGGCATTCAGAATGGCGTCGA = 2.21

# ---- query sequence ----
I am curious: what PBM binding z-score value has been reported for `CAAACTGGGTCAAGAGGTCAAAGTCCGCTTCCCG` ?
9.59

###

Test system: LXRb homodimer (NR concentration 270 nM)
Experiment summary: PBM binding z-score (relative to random genomic background probes); higher = stronger binding; sequences stand for … in GC…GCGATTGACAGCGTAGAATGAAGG
Reported endpoint: PBM binding z-score
A bare number is all that is needed in reply.

Before answering, review these 2 worked examples.
AGAATGAGGTTATTAAGATCAGGGACTTGCGGTC = 0.02
ACAGACAGGTGAGTGAAGGCAACTCAGCTGGACG = -0.607

Now look at this entry.
Entry `ACTGGCAGGCCAAGTTTGGGTCACTCAAACAAAG` has what PBM binding z-score?
-0.59

###

Test system: PPARa:RXRa (NR concentration 270 nM, RXRa partner concentration 90 nM)
Experiment summary: PBM binding z-score (relative to random genomic background probes); higher = stronger binding; sequences stand for … in GC…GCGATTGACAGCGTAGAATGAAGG
Reported endpoint: PBM binding z-score
Lab note: record the figure alone, no unit after it.

ATCGAAAGGTCGACGAGCTGAGTATACACCGTTT = 4.22
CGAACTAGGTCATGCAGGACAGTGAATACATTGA = 4.66
AGTCAAAGTTCACTAGTTAACGTAAGATTCAGCT = 4.06

Please turn your attention to the following entry.
Param item = `AGAACGAGGGTAATGAGTTGATAGCACGGGTGGC` ; retrieve measured PBM binding z-score.
0.387

###

Tested on: LXRa homodimer (NR concentration 270 nM)
Experiment summary: PBM binding z-score (relative to random genomic background probes); higher = stronger binding; sequences stand for … in GC…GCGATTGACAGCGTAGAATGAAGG
Think of 0.3 as a floor: if PBM binding z-score stands on it or above, it is 1; beneath it, 0.

TCTTGTAGAGCAAAGGTTAAGAAAGCCGAAGCCT = 0
GCATATACGTAATACAAGGTGAAAGTCCGATTGT = 1
CAAACTAGGTCAAGAGGTCAATGTCCGCTTCCCG = 1
ATACCAAGGTGACCGTGAGGTCGTTGATACTAAC = 1
AATACAGGGTCATCGTAGGCCGGAGTACGCACAG = 1

Given the entry `CCAGACAGGTGAGAAGGTCACTCAGCCTCGATTA` , answer whether its PBM binding z-score meets or surpasses 0.3.
1

Check if PBM binding z-score >= 0.3 (inclusive). Item: `ACAGACAGGTGAGTGAACGTAACTCAGCTGGACG`
0

Does `GGAACGAGGGCAAGTTTATAGCAGAGTTTGATGG` have a reported PBM binding z-score of at least 0.3?
0

// inclusive: PBM binding z-score at least 0.3? input: `TCTATTAGTCGATTAGGGCAACCGAAACAGCGGA`
1

Does PBM binding z-score meet or surpass 0.3 for `TGAATGGGGTTAAAGATCAGGGAACGTGGCGTCG` ?
1

Check this sequence for PBM binding z-score at or above 0.3: `CCGAGCAGGCCAATCTGGGTCACTCAAGGCTTGA`
0
